Measured RP-LC retention time, listed per entry.
Assay: gradient 5% acetonitrile 3 min, to 50% in 2 min, to 85% in 15 min, held 3 min, 100 µL/min
Details: column: Zorbax Extend-C18 2.1 x 50 mm; eluents: water / acetonitrile, 0.1% formic acid
endpoint_label: RP-LC retention time

| molecule | endpoint_label | recorded_result |
| --- | --- | --- |
| COc1ccc(-c2nnc(CC(=O)NCC3CC3)o2)cc1 | RP-LC retention time | 732 s |
| Cc1ccc(NC(=O)N2CCc3nc[nH]c3C2)cc1 | RP-LC retention time | 575 s |
| Cc1ccn2cc(C(=O)NC3CCCC3)nc2c1 | RP-LC retention time | 600 s |
| CNc1nc(Nc2cn(C(C)(C)C#N)nc2C)ncc1C(F)(F)F | RP-LC retention time | 696 s |
| CC(C)n1c(C2CCN(C(=O)Cc3cccc(Cl)c3)C2)nc2ccncc21 (stereo not given) | RP-LC retention time | 567 s |
| O=c1ccc(N2CCC(NS(=O)(=O)c3ccc(F)c(F)c3)CC2)nn1CC1CC1 | RP-LC retention time | 834 s |
| COc1cc(OC)cc(C(=O)Nc2nc(C(=O)NC(C)c3ccccc3)cs2)c1 (stereo not given) | RP-LC retention time | 873 s |
| Cc1ccsc1C(=O)N1CC(Oc2cccc(-c3nc(-c4ccccc4)no3)c2)C1 | RP-LC retention time | 1280 s |
| CN(C)CCNC(=O)CCc1cc2ccccc2[nH]c1=O | RP-LC retention time | 569 s |
| CCCC(=O)Nc1nc(-c2ccc3c(c2)N(CCC)C(=O)CO3)cs1 | RP-LC retention time | 935 s |
| Cc1ccc(NC(=O)Nc2cccn3nc(C4CC4)nc23)cc1 | RP-LC retention time | 912 s |
| O=C(NC1CCCCC1)C1CC(=O)N(CCc2c[nH]c3ccc(Cl)cc23)C1 (stereo not given) | RP-LC retention time | 817 s |
| COc1cc(NC(=O)N2CCN(c3cc(C)nc(N4CCCCC4)n3)CC2)cc(OC)c1OC | RP-LC retention time | 669 s |
| Cc1ccsc1C(=O)N1CCC(n2cnnc2-c2ccccc2)C1 (stereo not given) | RP-LC retention time | 662 s |
| Cc1ccc2oc(-c3noc(C(=O)NCc4cccs4)n3)c(C)c2c1 | RP-LC retention time | 1150 s |
| COc1ccc(CC(=O)Nc2cc3c(cc2SC(C)C)n(C)c(=O)n3C)cc1 | RP-LC retention time | 923 s |
| CCNC(=O)N(CC(=O)N1CCc2sccc2C1COc1ccccc1)CC1CC1 (stereo not given) | RP-LC retention time | 857 s |
| COc1ccc(Cl)cc1S(=O)(=O)N1CCC(C(=O)Nc2ccccc2F)CC1 | RP-LC retention time | 921 s |
| COc1ccc(NC(=O)Nc2c(-c3ccc(F)cc3)nc3ccccn23)cc1 | RP-LC retention time | 649 s |
| Cc1nn2c(CNS(=O)(=O)Cc3cccc(Cl)c3)c(-c3ccccc3)nc2s1 | RP-LC retention time | 978 s |
